# Target Under Test: cdDHQD (Clostridioides difficile, UniProt Q186A6)
# Sequence (Q186A6 whole entry): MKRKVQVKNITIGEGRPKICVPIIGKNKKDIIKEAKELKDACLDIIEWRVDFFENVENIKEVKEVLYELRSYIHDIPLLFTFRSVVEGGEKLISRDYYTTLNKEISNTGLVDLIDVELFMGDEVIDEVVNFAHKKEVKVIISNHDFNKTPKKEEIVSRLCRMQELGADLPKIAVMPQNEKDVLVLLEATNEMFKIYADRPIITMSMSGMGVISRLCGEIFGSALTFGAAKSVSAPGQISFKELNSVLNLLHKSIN
# Protocol Description: biochemical
# Particulars: Kd for binding to cdDHQD (line broadening, double reciprocal plot), NMR; PBS pH 7.2, 25°C
pKd: −log10 of the molar value.
Quantity Kind: pKd

// fetch pKd given entry COc1ccc2nc(NS(=O)(=O)c3cc(Cl)ccc3Cl)sc2c1
~4.60

* * *

Give Ki for every item shown.

Give cdDHQD (Clostridioides difficile, UniProt Q186A6) Ki for the following molecule: O=C(O)c1ccccc1NC(=O)c1csc2c1CCCC2
19 to 22 µM

Report its Ki with cdDHQD (Clostridioides difficile, UniProt Q186A6) as the test system: O=S(=O)(Nc1nc(-c2ccccc2)cs1)c1cc(Cl)ccc1Cl
11 to 15 µM

* * *

For each record, write down the corresponding IC50.
# Target Under Test: vcDHQD (type II DHQD) (Vibrio cholerae, UniProt Q9KV60)
# Sequence (Q9KV60 whole entry): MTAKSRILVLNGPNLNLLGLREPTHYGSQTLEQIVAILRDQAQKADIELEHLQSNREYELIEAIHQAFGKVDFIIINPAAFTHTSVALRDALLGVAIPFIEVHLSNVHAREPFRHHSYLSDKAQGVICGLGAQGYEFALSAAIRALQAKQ
# Protocol Description: vcDHQD inhibition, DHQD panel
# Type: biochemical
# Particulars: type II DHQD; read-out: IC50 vcDHQD

Kindly indicate its recorded IC50. Item: O=S(=O)(Nc1nc(-c2ccccc2)cs1)c1cc(Cl)ccc1Cl
> 200 µM

Quickly give me recorded IC50 for O=C(O)c1ccccc1NC(=O)c1csc2c1CCCC2
> 200 µM

* * *

// endpoint IC50 / system btDHQD (type II DHQD) (Bacteroides thetaiotaomicron, UniProt Q8A3W2)

Report IC50 for O=C(O)c1ccccc1NC(=O)c1csc2c1CCCC2 [Compound 3]
> 200 µM

Supply recorded IC50 for O=S(=O)(Nc1nc(-c2ccccc2)cs1)c1cc(Cl)ccc1Cl [Compound 1] here.
> 200 µM

Quickly give me recorded IC50 for COc1ccc2nc(NS(=O)(=O)c3cc(Cl)ccc3Cl)sc2c1 [Compound 2]
> 200 µM

* * *

# Target Under Test: vcDHQD (type II DHQD) (Vibrio cholerae, UniProt Q9KV60)
# Protocol Description: vcDHQD inhibition, DHQD panel
# Assay type: biochemical
pIC50: −log10 of the molar value.
Quantity Kind: pIC50

Identify pIC50 associated with the molecule COc1ccc2nc(NS(=O)(=O)c3cc(Cl)ccc3Cl)sc2c1 [Compound 2]
< 3.70

Reference for the values: paper PMC3931744
